Target: Receptor-type tyrosine-protein kinase FLT3 (Homo sapiens) (UniProt P36888)
Sequence (P36888 whole entry): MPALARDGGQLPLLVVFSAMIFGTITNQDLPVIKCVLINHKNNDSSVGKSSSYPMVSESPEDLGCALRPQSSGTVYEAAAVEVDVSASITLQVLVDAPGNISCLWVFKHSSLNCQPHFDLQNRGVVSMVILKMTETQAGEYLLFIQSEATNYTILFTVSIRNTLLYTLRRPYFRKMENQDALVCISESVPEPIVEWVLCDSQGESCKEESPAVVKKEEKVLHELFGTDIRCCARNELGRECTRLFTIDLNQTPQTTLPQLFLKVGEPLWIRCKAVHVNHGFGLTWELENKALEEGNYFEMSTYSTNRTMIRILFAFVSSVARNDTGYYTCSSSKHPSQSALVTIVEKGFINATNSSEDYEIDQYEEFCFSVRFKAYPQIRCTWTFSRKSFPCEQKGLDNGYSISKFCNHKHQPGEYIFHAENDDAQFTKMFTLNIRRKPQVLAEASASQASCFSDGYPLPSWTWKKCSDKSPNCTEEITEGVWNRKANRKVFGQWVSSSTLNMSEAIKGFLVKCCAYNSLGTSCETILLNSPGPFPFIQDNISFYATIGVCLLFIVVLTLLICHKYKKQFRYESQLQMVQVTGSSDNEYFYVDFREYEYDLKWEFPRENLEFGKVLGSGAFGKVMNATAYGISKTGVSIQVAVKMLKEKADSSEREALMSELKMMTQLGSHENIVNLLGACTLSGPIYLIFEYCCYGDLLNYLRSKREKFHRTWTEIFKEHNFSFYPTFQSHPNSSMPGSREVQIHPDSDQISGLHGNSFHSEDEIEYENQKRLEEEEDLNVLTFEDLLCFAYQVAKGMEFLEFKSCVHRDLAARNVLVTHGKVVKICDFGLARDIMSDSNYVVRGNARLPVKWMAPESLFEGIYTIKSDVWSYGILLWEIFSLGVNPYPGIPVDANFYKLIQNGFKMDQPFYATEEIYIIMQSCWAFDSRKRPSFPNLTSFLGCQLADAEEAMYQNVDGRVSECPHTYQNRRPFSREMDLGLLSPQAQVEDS
Test: Inhibition of human FLT3 assessed as residual activity at 0.123 uM using EAIYAAPFAKKK as substrate preincubated for 20 mins followed by [gamma-33P]-ATP addition measure after 120 mins by filter binding method relative to control
observation_type: Activity (%)

Some solved cases for reference:
>>> numeric_readout("COc1ccc2nccc(Nc3c[nH]nc3C(=O)Nc3ccc(CN4CCN(C)CC4)cc3)c2c1")
10.4
>>> numeric_readout("CN1CCN(Cc2ccc(NC(=O)c3n[nH]cc3Nc3nccc4ccccc34)cc2)CC1")
24.5
>>> numeric_readout("O=C(Nc1ccc(CN2CCOCC2)cc1)c1n[nH]cc1Nc1cc(C(F)(F)F)nc2ccccc12")
83.2

1 = CN1CCN(Cc2ccc(NC(=O)c3n[nH]cc3Nc3ccnc4ccccc34)cc2)CC1
2 = O=C(Nc1ccc(CN2CCOCC2)cc1)c1n[nH]cc1Nc1ccnc2ccccc12
Sorting by Activity in descending order, would 1 or 2 appear first? Give the label of your selection.
2
